Collected pKi values appear next to each entry.
- STUDY SYSTEM: Cathepsin L (UniProt P07711 114-333)
- Sequence (P07711 114-333 limits assumed): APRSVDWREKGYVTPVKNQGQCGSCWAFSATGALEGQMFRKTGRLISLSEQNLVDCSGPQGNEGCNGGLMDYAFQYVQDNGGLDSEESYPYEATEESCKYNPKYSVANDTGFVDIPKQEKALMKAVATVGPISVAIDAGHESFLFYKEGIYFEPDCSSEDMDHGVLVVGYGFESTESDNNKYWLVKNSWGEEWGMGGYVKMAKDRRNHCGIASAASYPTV
- EXPERIMENT SUMMARY: fluorescence-based enzyme inhibition assay
pKi: −log10 of the molar value. Positions of bridges follow the written chain, without caps; N, C: chain ends. No end group written: not given here. alpha,alpha'‑meta‑xylylene = alpha,alpha'-meta-xylylene linker (from a,a'-dibromo-meta-xylene) bridging two cysteines via bis-thioether
PARAMETER MEASURED: pKi

- BINDER: "SECFRQCMNGF (linker 3-7 via alpha,alpha'‑meta‑xylylene) [SECFRQCMNGF (SEQ ID NO:2)]"
  RESULT NUMBER: 4.07
- BINDER: "SCEFRCVMNGF (linker 2-6 via alpha,alpha'‑meta‑xylylene) [SCEFRCVMNGF (SEQ ID NO:3)]"
  RESULT NUMBER: 4.53
